# EXPERIMENTAL_SYSTEM: UniProt:P29477
# Sequence (P29477 whole entry): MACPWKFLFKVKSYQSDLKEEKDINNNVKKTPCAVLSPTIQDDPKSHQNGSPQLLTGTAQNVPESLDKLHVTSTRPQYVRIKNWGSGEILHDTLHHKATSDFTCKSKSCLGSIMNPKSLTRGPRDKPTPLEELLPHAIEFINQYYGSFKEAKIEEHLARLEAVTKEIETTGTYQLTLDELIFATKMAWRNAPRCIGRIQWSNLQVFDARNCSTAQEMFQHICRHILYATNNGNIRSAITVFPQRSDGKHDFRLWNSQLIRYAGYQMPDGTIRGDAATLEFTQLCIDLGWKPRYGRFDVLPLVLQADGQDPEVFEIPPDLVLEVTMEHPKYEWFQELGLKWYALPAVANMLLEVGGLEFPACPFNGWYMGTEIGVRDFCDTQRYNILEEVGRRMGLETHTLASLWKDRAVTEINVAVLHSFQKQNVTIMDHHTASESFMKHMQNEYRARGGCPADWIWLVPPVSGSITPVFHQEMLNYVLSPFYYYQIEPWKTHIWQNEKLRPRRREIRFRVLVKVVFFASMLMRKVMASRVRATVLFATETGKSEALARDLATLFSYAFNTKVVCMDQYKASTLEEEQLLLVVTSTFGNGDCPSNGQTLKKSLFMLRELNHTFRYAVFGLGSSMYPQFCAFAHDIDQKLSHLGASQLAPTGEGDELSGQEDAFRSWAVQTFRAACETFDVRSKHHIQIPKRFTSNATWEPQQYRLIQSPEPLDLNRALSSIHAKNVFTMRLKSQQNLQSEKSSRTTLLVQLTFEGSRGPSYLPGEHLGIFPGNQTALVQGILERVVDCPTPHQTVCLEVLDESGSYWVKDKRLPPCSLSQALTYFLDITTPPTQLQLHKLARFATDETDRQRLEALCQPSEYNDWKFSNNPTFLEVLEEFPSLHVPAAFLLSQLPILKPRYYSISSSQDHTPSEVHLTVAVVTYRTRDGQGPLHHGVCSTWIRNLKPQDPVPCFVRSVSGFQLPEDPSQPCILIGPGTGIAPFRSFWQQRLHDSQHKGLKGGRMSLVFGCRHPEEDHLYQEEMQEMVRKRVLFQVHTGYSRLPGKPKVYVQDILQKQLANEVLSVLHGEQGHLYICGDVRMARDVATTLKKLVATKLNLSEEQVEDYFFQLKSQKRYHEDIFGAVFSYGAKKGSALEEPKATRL
# EXPERIMENT_NOTES: Inhibition of iNOS in Mus musculus (mouse) RAW264.7 cells assessed as inhibition of LPS-induced nitrite production incubated for 30 min prior to LPS challenge measured after 24 hr by Griess assay
IC50 by entry:
OBSERVABLE: IC50 (µM)

>  <COMPOUND>
CC(=O)N1N=C(c2ccc(F)cc2)OC1c1ccccc1 (stereo not given)

>  <EXPERIMENTAL_SYSTEM>
UniProt:P29477

>  <RESULT_QUALIFIER>
>

>  <MEAS_VALUE>
87.9

$$$$
>  <COMPOUND>
CC(=O)N1N=C(c2ccc(F)cc2)OC1c1ccc(N(C)C)cc1 (stereo not given)

>  <EXPERIMENTAL_SYSTEM>
UniProt:P29477

>  <RESULT_QUALIFIER>
=

>  <MEAS_VALUE>
61.1

$$$$
>  <COMPOUND>
O=C(N/N=C/c1ccc(O)cc1)c1ccc(F)cc1

>  <EXPERIMENTAL_SYSTEM>
UniProt:P29477

>  <RESULT_QUALIFIER>
>

>  <MEAS_VALUE>
96.8

$$$$
>  <COMPOUND>
C=C1C(=O)O[C@@H]2C3O[C@]3(C)CC/C=C(\C)CC[C@@H]12 (stereo not given in full)

>  <EXPERIMENTAL_SYSTEM>
UniProt:P29477

>  <RESULT_QUALIFIER>
=

>  <MEAS_VALUE>
1.61

$$$$
>  <COMPOUND>
COc1ccc(C2OC(c3ccc(F)cc3)=NN2C(C)=O)cc1O (stereo not given)

>  <EXPERIMENTAL_SYSTEM>
UniProt:P29477

>  <RESULT_QUALIFIER>
=

>  <MEAS_VALUE>
12.1

$$$$
>  <COMPOUND>
CC(=O)N1N=C(c2ccc(F)cc2)OC1c1ccc(O)cc1 (stereo not given)

>  <EXPERIMENTAL_SYSTEM>
UniProt:P29477

>  <RESULT_QUALIFIER>
=

>  <MEAS_VALUE>
0.999

$$$$
>  <COMPOUND>
O=C(N/N=C/c1ccco1)c1ccc(F)cc1

>  <EXPERIMENTAL_SYSTEM>
UniProt:P29477

>  <RESULT_QUALIFIER>
>

>  <MEAS_VALUE>
108

$$$$
>  <COMPOUND>
COc1ccc(/C=N/NC(=O)c2ccc(F)cc2)cc1O

>  <EXPERIMENTAL_SYSTEM>
UniProt:P29477

>  <RESULT_QUALIFIER>
=

>  <MEAS_VALUE>
76.3

$$$$
>  <COMPOUND>
CC(=O)N1N=C(c2ccc(F)cc2)OC1c1ccc(Br)cc1 (stereo not given)

>  <EXPERIMENTAL_SYSTEM>
UniProt:P29477

>  <RESULT_QUALIFIER>
>

>  <MEAS_VALUE>
68.8

$$$$
>  <COMPOUND>
O=C(N/N=C/c1ccc(Br)s1)c1ccc(F)cc1

>  <EXPERIMENTAL_SYSTEM>
UniProt:P29477

>  <RESULT_QUALIFIER>
>

>  <MEAS_VALUE>
76.4

$$$$
